# Lookup of reported z-score keyed by entry
- method.description: JC-1 mitochondrial signal, unstimulated MM1S myeloma – cell-based, JC-1 fluorescence, 24 h, 100 nL compound, profiling panel (AID 1170); also: test concentration not given here
- settings: MM1S mitochondrial potential, higher = more signal
The reply should be a number, written without any unit.

Some solved cases for reference:
{"columns": ["compound", "assay.value"],
 "data": [
  ["CCCNC(=O)[C@@]1(C)c2ccccc2C(=O)N(C(C)C)[C@H]1c1ccc(CO)cc1", -0.426],
  ["C[n+]1ccc2ccc(O)cc2c1", -0.723]
]}

Form field z-score, entry [N-]=[N+]=NCc1ccccc1[C@H]1OC(c2ccc(OCCCO)cc2)=N[C@@]1(Cc1ccccc1)C(=O)NCC(O)CO (some centres not stated) : -1.11

Form field z-score, entry C=CCC(OC(C)=O)[C@@H]1[C@@H](N(Cc2ccc(-c3ccccc3)cc2)C(=O)c2ccc(C)cc2)c2cc(OCCCO)ccc2N1C(=O)Cc1ccc(OC)cc1 (some centres not stated) : -0.496

====

- method.description: compound effects on multiple myeloma cell viability – MM1S, calcein-AM fluorescence, 48 h, basal, profiling panel (AID 1165);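 also: viability of MM1S multiple myeloma cells under basal unstimulated conditions; test concentration not given here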
- settings: higher = more signal
metric.name: z-score

{"columns": ["compound", "metric.name", "assay.value"],
 "data": [
  ["COc1ccc(C(=O)Nc2cccc(CN3C(=O)[C@@]4(O[C@@H](CC(=O)N5Cc6ccccc6C[C@H]5CO)[C@H]([Si](C)(C)c5ccc(OC)cc5)[C@H]4C)c4ccccc43)c2)cc1", "z-score", -2.57],
  ["C=C[C@@H](C)[C@@H](OC(=O)Nc1ccc(OC)cc1)c1ccc(O)c2ccccc12", "z-score", -2.72],
  ["C=CCC(OC(C)=O)[C@@H]1[C@@H](N(Cc2cc3ccccc3o2)C(=O)c2cccc3ccccc23)c2cc(OCCCO)ccc2N1C(=O)Cc1ccc2ccccc2c1 (stereo partly drawn)", "z-score", 0.791],
  ["CC(C)C(O)C1C=CC2C(=O)N(C)C(=O)C2N1N1CCCCC1 (stereo not drawn)", "z-score", -0.602]
]}

Form field z-score, entry COc1cc(NN2C(C(O)c3ccccc3)C=CC3C(=O)N(c4ccccc4)C(=O)C32)cc(OC)c1OC (stereo not drawn) : 0.673

Form field z-score, entry O=C1OCCC=C[C@H]2OC34C=CCN(CCN5CCOCC5)C(=O)[C@H]3N(CCO)C(=O)[C@@H]4C12 (stereo partly drawn) : 0.471

Form field z-score, entry COc1ccccc1CN1C(=O)c2ccccc2[C@](Cc2ccccc2I)(C(=O)NC2CC2)[C@@H]1c1ccc(CO)cc1 : -0.664

Form field z-score, entry CN(C)CCCN1C(=O)[C@@]2(c3ccc([N+](=O)[O-])cc3)CC(=O)N(C3CCCCC3)[C@@H]2c2ccc(CO)cc21 : -0.0337

====

# Lookup of reported composite z-score keyed by entry
- target.under.test: Left-right determination factor 2 (Homo sapiens)
- method.description: small molecules binding LEFTY2 protein – biochemical, small-molecule microarray, 635 nm fluorescence scan, primary screen (AID 1110)
- settings: higher = more signal
The reply should be a number, written without any unit.

Some solved cases for reference:
{"columns": ["compound", "composite z-score"],
 "data": [
  ["CO[C@H]1O[C@H](CO)[C@@H](OC(=O)Nc2ccc(C(F)(F)F)cc2)[C@H](OC(=O)Nc2ccccc2)[C@@H]1OC(=O)Nc1ccccc1", 0.003],
  ["O=C1c2ccccc2[C@@]2(Cc3ccccc3N(Cc3ccccc3)C2=O)[C@H](c2ccc(CO)cc2)N1Cc1ccccc1C(F)(F)F", -1.3],
  ["C=CCC(OC(C)=O)[C@@H]1[C@@H](N(Cc2ccc(-c3cccc(C(F)(F)F)c3)o2)C(=O)c2ccc(C)cc2)c2cc(OCCCO)ccc2N1C(=O)c1ccc2ccccc2n1 (some centres undefined)", 0.435]
]}

Form field composite z-score, entry COc1ccc(C(O)C2C=CC3C(=O)N(c4ccccc4)C(=O)C3N2Nc2ccccc2)c2ccccc12 (centres undefined) : -0.608
